List of Percent Effect values.
assay-system: Tyrosyl-tRNA synthetase, putative (Trypanosoma cruzi (strain CL Brener)) (UniProt Q4DSP6)
Sequence (Q4DSP6 as listed by the source): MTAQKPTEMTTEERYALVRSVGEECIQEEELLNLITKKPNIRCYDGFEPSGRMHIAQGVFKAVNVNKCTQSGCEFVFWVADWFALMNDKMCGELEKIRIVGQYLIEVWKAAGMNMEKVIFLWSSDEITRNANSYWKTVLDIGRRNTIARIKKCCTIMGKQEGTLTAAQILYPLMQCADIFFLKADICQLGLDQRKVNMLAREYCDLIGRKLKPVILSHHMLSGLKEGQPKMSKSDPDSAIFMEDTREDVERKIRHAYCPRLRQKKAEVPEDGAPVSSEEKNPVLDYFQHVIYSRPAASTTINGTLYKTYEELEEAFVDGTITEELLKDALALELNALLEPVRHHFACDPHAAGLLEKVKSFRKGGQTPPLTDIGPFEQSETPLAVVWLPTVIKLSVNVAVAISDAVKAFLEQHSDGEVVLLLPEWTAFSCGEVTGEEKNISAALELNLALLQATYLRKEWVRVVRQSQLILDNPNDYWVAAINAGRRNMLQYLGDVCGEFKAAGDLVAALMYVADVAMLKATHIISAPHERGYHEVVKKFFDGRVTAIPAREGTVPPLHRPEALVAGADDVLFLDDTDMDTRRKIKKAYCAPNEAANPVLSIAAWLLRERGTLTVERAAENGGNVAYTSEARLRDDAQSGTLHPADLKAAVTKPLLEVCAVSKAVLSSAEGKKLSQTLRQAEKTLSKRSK
test-method-notes: Trypanosoma cruzi tyrosyl tRNA synthetase (TcYRS) _High Tyrosine SOP; also: in the data most compounds retested in dose-response had high values
Type: functional
Parameters: scale not given: direction of the effect not stated beside the values
test-parameters: 30 µM

{"columns": ["compound", "Percent Effect (%)"],
 "data": [
  ["O=C1N(c2cccc(Cl)c2)Cc2nc(=O)n(Cc3cccc(F)c3)n21", -1.06],
  ["CC(C)N(C)C(=O)C1=NOC2(CCN(C(=O)c3ccc(Cl)cc3)C2)C1 (configuration not stated)", 8.33],
  ["CC(NC(=O)NCCCN(C)C)c1ccc2c(c1)CCC(=O)N2 (configuration not stated)", 8.74],
  ["O=S1(=O)CCCN1Cc1coc(-c2cccs2)n1", 5.26],
  ["Cc1cnc2n(c1=O)C(CC(=O)NCc1cc(-c3cccs3)on1)CS2 (configuration not stated)", 2.12],
  ["c1ccc(-c2nnn3c2COC(CNCC2CCOCC2)C3)cc1 (configuration not stated)", 7.45],
  ["Cn1cnc2c1CCN(Cc1nc(Cc3ccccc3)no1)C2", 11.3],
  ["CS(=O)(=O)CCSc1cccc(C#N)c1", -1.05],
  ["CCc1nnc2n1CCN(C(=O)c1ccc(C(F)(F)F)nc1C)C2", 2.46],
  ["Cc1noc2ncc(C(=O)N(CC3CCOC3)C3CC3)cc12 (configuration not stated)", 0.49],
  ["CCc1c(C)sc(NC(=O)CN2CCN(CC)CC2)c1C(=O)OC", 0],
  ["CNC(=O)C1CCN(C(=O)c2ccn(-c3ccc(F)cc3)n2)CC1", 10.9],
  ["CCOCC(O)CN1CCN(C(=O)c2cc(F)ccc2C)CC1 (configuration not stated)", 0.971],
  ["CC(C)NS(=O)(=O)c1cc(C(=O)O)cc(-c2ccccc2CN(C)C)c1", 1.07],
  ["Cc1cc(C)n(CC2CN(CCOc3cccc(C#N)c3)CCO2)n1 (configuration not stated)", 7.39],
  ["Cn1nccc1C(=O)N1CCOC(Cc2cccc(C(F)(F)F)c2)C1 (configuration not stated)", 3.83],
  ["Cc1cccc(S(=O)(=O)NCC(C)N2CCN(C)CC2)c1Cl (configuration not stated)", 0]
]}

---

assay-system: AMP-activated protein kinase, AMPK (Homo sapiens) (UniProt P54646+O43741+P54619+Q9UGJ0+Q9Y478+Q13131+Q9UGI9)
test-method-notes: AMP-dependent Kinase enzyme assay. An in vitro enzyme assay that detects ADP turnover that is directly proportional to AMPK activity. This uses naive AMPK that is activated during the assay with MK-8722
Type: functional
Parameters: scale not given: direction of the effect not stated beside the values
test-parameters: 30 µM
List of Percent Effect values.

{"columns": ["molecule", "Percent Effect"],
 "data": [
  ["Cc1nc(C(C)(C)NC(=O)Nc2ccccc2)no1", "2.23%"],
  ["O=C(CCc1nccs1)N1CCN(c2ccc(Br)cn2)CC1", "14.3%"],
  ["Cc1cccc(-n2ncc(C(=O)N3CCn4c(C)nnc4C3)c2C)c1", "0.162%"],
  ["O=C1CCCc2cc(-c3csc(CCN4CCOC4=O)n3)ccc2N1", "0.804%"],
  ["CN(CCC(F)(F)F)C(=O)C1CCCN1C(=O)OC(C)(C)C (configuration not stated)", "0.924%"],
  ["CN(CCO)Cc1nnc(C2CCN(C(=O)C(C)(C)C)CC2)n1C", "1.76%"],
  ["Cc1nc(C)n(CC2CCCN(Cc3nc(C4CC4)no3)C2)n1 (configuration not stated)", "-9.55%"],
  ["CC(C)c1nccn1C1CCCN(C(=O)c2ccnc(N(C)C)c2)C1 (configuration not stated)", "-1.67%"],
  ["COCCN1C[C@H]2CC[C@@]3(N=C(C)N(CC4CC4)C3=O)[C@H]2C1", "1.81%"],
  ["CN(Cc1ccc(Cl)s1)C(=O)c1cccc(OCC(N)=O)c1", "0.84%"],
  ["CCOCC1CN(Cc2cccc(C#N)c2)Cc2nccn2C1 (configuration not stated)", "2.91%"],
  ["CCc1cc(NCCNc2cccnc2)n2nccc2n1", "3.96%"]
]}
